- System: 138582-337-R-J1-PDC complex spheroid viability;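 further: spheroids exposed to agents for 7 days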
- protocol_summary: Anticancer human tumor 138582-337-R-J1-PDC patient-derived Merkel cell tumor cell line growth inhibition
- stated_conditions: curve of first compound; second compound 3.16 µM
measurement_name: IC50

Which IC50 is reported for this molecule? Nc1ncn(C2CC(O)C(CO)S2)c(=O)n1 (stereo not drawn) + NC1CCC(NC2CC2c2ccccc2)CC1
> 300 nM

Reported IC50 for CC(C)CC(NC(=O)CNC(=O)c1cc(Cl)ccc1Cl)B1OC(=O)CC(CC(=O)O)(C(=O)O)O1 (stereo not drawn) + NC1CCC(NC2CC2c2ccccc2)CC1 : what is it?
8.03 nM

Request the reported IC50 associated with COc1cc(Nc2ncc3c(n2)-c2ccc(Cl)cc2C(c2c(F)cccc2OC)=NC3)ccc1C(=O)O + NC1CCC(NC2CC2c2ccccc2)CC1
> 1000 nM
